The compounds below each have a reported pIC50 tested on human DGAT2 (hDGAT2) (Homo sapiens, UniProt Q96PD7); the values come from various publications.
Sequence (Q96PD7 whole entry): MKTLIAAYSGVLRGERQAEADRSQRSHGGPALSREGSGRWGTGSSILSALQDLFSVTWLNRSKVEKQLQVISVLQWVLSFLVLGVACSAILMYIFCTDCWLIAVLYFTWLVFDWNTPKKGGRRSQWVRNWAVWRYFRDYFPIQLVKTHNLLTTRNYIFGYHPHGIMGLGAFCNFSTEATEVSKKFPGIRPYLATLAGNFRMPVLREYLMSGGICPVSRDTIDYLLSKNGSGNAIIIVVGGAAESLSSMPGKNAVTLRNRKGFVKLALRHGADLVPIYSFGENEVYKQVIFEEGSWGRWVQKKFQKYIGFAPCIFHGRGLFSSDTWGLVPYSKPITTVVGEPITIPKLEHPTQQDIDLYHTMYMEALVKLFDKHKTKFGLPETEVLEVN
Remember, pIC50 is on a log scale: it is -log10 of the molar concentration.

Take a look at these entries with their results.
- Compound: "CCOc1cccnc1Oc1cncc(-c2ncc(C(=O)N[C@@H]3CNCC[C@H]3F)cn2)c1"
  pIC50: 6.96
- Compound: "O=C(NC1CCCC1)c1ccc2c(-c3ccccc3Cl)nn(-c3ccc(F)cc3)c2c1"
  pIC50: 6.81

Prompt: Give the measured pIC50 of `CC(C)n1nc(-c2cccc(OC(F)F)c2)c2ncc(C(=O)NC3(CO)CCOCC3)cc21` .
Completion: 7.19

Prompt: Give the measured pIC50 of COc1cccc(-c2ccc(CNC(=O)[C@@H]3C[C@H]3c3ccccc3)c3c2CCN(C(=O)NC2COC2)C3)c1 (relative stereo) .
Completion: 7.05

Prompt: Give the measured pIC50 of `Cn1cc(C(C)(C)NC(=O)c2ccc3c(-c4ccccc4Cl)nn(-c4ccc(F)cc4)c3c2)cn1` .
Completion: 6.92

Prompt: Give the measured pIC50 of COC(=O)C1(NC(=O)c2ccc3c(-c4ccccc4Cl)nn(-c4ccc(F)cc4)c3c2)CCS(=O)(=O)C1 (racemic) .
Completion: 7.05

Prompt: Give the measured pIC50 of `CC(C)(NC(=O)c1ccc2c(-c3ccccc3Cl)nn(-c3ccc(F)cc3)c2c1)c1ccc(C(F)(F)F)nc1` .
Completion: 7.03

* * *

The compounds below each have a reported IC50 tested on UniProtKB Q96PD7; the values come from various publications.
Could you kindly put the unit after your number?

Take a look at these entries with their results.
- Compound: "CC1(NC(=O)c2ccc3c(-c4ccc(Cl)nc4F)nn(-c4ccc(F)cc4)c3c2)CCS(=O)(=O)C1 (single isomer, unassigned)"
  IC50: "4.5 nM"
- Compound: "CC1(NC(=O)c2nc3ccc(Oc4nccnc4OCC(F)(F)F)nn3c2Cl)CCS(=O)(=O)CC1"
  IC50: "4000 nM"
- Compound: "CC(C)(C)NC(=O)N1CCc2c(-c3cccc(C(F)(F)F)c3)ccc(C(=O)NCc3n[nH]c4c3CCC4)c2C1"
  IC50: "727 nM"
- Compound: "CCOc1cccnc1Oc1ccc2nc(C(=O)Nc3ccccc3)cn2c1"
  IC50: "168 nM"

Prompt: Lab request: please report IC50 under test system UniProtKB Q96PD7 for `Cc1c(Oc2ncc(F)cc2OCC(C)(F)F)cc(F)c2nc(C(=O)NC3(C)CCS(=O)(=O)CC3)nn12`
Completion: 61 nM

Prompt: Lab request: please report IC50 under test system UniProtKB Q96PD7 for O=C(NC1CCS(=O)(=O)C1)c1ccc2c(-c3cccc(OC(F)F)c3)nn(-c3ccc(F)cc3)c2c1 (single isomer, unassigned)
Completion: 1.4 nM

Prompt: Lab request: please report IC50 under test system UniProtKB Q96PD7 for COc1ccccc1-c1cn(-c2ccc(F)cc2)c2cc(C(=O)NC3CCS(=O)(=O)C3)ccc12 (racemic)
Completion: 223 nM

Prompt: Lab request: please report IC50 under test system UniProtKB Q96PD7 for COC(=O)c1cccc(-c2ccc(CNC(=O)C3CC3c3ccccc3)c3c2CCN(C(=O)CCC(F)(F)F)C3)c1 (stereo not shown)
Completion: 1220 nM

Prompt: Lab request: please report IC50 under test system UniProtKB Q96PD7 for `CC1(NC(=O)c2cn3nc(Oc4ncc(F)cc4OCC4(F)CC4)ccc3n2)CCS(=O)(=O)CC1`
Completion: 186 nM

Prompt: Lab request: please report IC50 under test system UniProtKB Q96PD7 for `CCc1c(C(=O)NC2(C)CCS(=O)(=O)CC2)nn2ccc(Oc3ncccc3OCC(F)(F)F)cc12`
Completion: 17 nM

Prompt: Lab request: please report IC50 under test system UniProtKB Q96PD7 for `N[C@@H]1COC[C@H]1NC(=O)c1cnc2c(-c3cccc(OC(F)F)c3)cn(-c3ncc(F)cn3)c2c1`
Completion: 630 nM

Prompt: Lab request: please report IC50 under test system UniProtKB Q96PD7 for `C[C@@H](NC(=O)c1ccc2c(-c3ccccc3Cl)nn(-c3ccc(F)cc3)c2c1)c1ccc(C(F)(F)F)[n+]([O-])c1`
Completion: 155 nM

Prompt: Lab request: please report IC50 under test system UniProtKB Q96PD7 for `CC(C)n1nc(-c2cccc(OC(F)(F)F)c2)c2ncc(C(=O)NC3(C)CS(=O)(=O)C3)cc21`
Completion: 97 nM

Prompt: Lab request: please report IC50 under test system UniProtKB Q96PD7 for Cc1c(-c2cccc(OC(F)F)c2)c2ccc(C(=O)NC3(C)CCS(=O)(=O)C3)cc2n1-c1ccc(F)cc1 (racemic)
Completion: 17 nM

Prompt: Lab request: please report IC50 under test system UniProtKB Q96PD7 for `CC1(NC(=O)c2nc3ccc(Oc4ncccc4OCC(F)(F)F)cn3n2)CCC(F)(F)CC1`
Completion: 177 nM

Prompt: Lab request: please report IC50 under test system UniProtKB Q96PD7 for CC(c1cc(-c2ccccc2)[nH]n1)N(C)C(=O)c1ccc2c(-c3ccccc3Cl)nn(-c3ccc(F)cc3)c2c1 (racemic)
Completion: 301 nM

Prompt: Lab request: please report IC50 under test system UniProtKB Q96PD7 for Cc1ccc(-n2nc(-c3ccccc3Cl)c3ccc(C(=O)NC4(C)CCS(=O)(=O)C4)cc32)nc1 (racemic)
Completion: 9.5 nM

Prompt: Lab request: please report IC50 under test system UniProtKB Q96PD7 for `CC(C)c1nn(-c2cccc(OC(F)F)c2)c2cnc(C(=O)NC3(C)CS(=O)(=O)C3)cc12`
Completion: 77 nM

Prompt: Lab request: please report IC50 under test system UniProtKB Q96PD7 for `CC1(NC(=O)c2cc(Cl)c3c(c2)c(C(C)(C)O)nn3-c2cccc(OC(F)F)c2)CS(=O)(=O)C1`
Completion: 9.1 nM

* * *

The compounds below each have a reported IC50 tested on human DGAT2 (hDGAT2) (Homo sapiens, UniProt Q96PD7); the values come from various publications.
Value expressed in µM; do not type the unit.

Take a look at these entries with their results.
- Compound: "CC1(NC(=O)c2cnc3c(c2)c(C(C)(C)O)nn3-c2cc(OC(F)F)ncc2F)CS(=O)(=O)C1"
  Experimental system: "human DGAT2 (hDGAT2) (Homo sapiens, UniProt Q96PD7)"
  IC50 (µM): 0.031
- Compound: "O=C(NC1CCS(=O)(=O)C1)c1ccc2c(-c3ccccc3Cl)nn(Cc3ccc(Cl)cc3)c2c1 (centres unmarked)"
  Experimental system: "human DGAT2 (hDGAT2) (Homo sapiens, UniProt Q96PD7)"
  IC50 (µM): 0.455
- Compound: "CC1(NC(=O)c2ccc3c(-c4ccccc4Cl)cn(-c4ccc(F)cn4)c3c2)CCS(=O)(=O)C1 (single isomer, unassigned; enantiomer a)"
  Experimental system: "human DGAT2 (hDGAT2) (Homo sapiens, UniProt Q96PD7)"
  IC50 (µM): 0.016
- Compound: "CCN(CC)C(=O)CN1CCc2c(-c3cccc(OC(F)(F)F)c3)ccc(CNC(=O)C3CC3c3nc(C)no3)c2C1 (centres unmarked)"
  Experimental system: "human DGAT2 (hDGAT2) (Homo sapiens, UniProt Q96PD7)"
  IC50 (µM): 0.658

Prompt: Lab request: please report IC50 under test system human DGAT2 (hDGAT2) (Homo sapiens, UniProt Q96PD7) for O=C(NC1CCS(=O)(=O)C1)c1ccc2c(-c3cccnc3Cl)nn(-c3ccc(F)cc3)c2c1 (single isomer, unassigned)
Completion: 0.065

* * *

The compounds below each have a reported IC50 tested on human DGAT2 (hDGAT2) (Homo sapiens, UniProt Q96PD7); the values come from various publications.
Value expressed in µM; do not type the unit.

- Compound: "Cc1c(C(=O)NC2(C)CS(=O)(=O)C2)nc2ccc(Oc3ncc(Cl)cc3OCC(F)F)nn12"
  Measurement units: "µM"
  Assay value: 0.011

Prompt: Give the measured IC50 of Cc1noc([C@H](NC(=O)c2ccc3c(-c4ccccc4Cl)nn(-c4ccc(F)cc4)c3c2)[C@H](C)O)n1 (stereo in doubt) .
Completion: 0.096

Prompt: Give the measured IC50 of `CC(C)(C)NC(=O)N1CCc2c(-c3cccc(C(F)(F)F)c3)ccc(C(=O)NCCc3nc4cc(Cl)ccc4[nH]3)c2C1` .
Completion: 0.0119

Prompt: Give the measured IC50 of CC1(NC(=O)c2ccc3c(-c4cccc(-n5cccn5)c4)nn(-c4ccc(F)cc4)c3c2)CCS(=O)(=O)C1 (racemic) .
Completion: 0.007

Prompt: Give the measured IC50 of `C[C@]1(NC(=O)c2ccc3c(c2)c(-c2ccc(F)cc2)cn3-c2ccccc2Cl)CCS(=O)(=O)C1` .
Completion: 0.115

Prompt: Give the measured IC50 of `O=C(NCc1cnc(C(F)(F)F)nc1)c1ccc2c(-c3ccccc3Cl)nn(-c3ccc(F)cc3)c2c1` .
Completion: 0.079
